- systemTested: AXL (human catalytic domain) (Homo sapiens, UniProt P30530)
- Construct: purchased Upstate Ltd. 14-512
- Sequence (P30530 473-894): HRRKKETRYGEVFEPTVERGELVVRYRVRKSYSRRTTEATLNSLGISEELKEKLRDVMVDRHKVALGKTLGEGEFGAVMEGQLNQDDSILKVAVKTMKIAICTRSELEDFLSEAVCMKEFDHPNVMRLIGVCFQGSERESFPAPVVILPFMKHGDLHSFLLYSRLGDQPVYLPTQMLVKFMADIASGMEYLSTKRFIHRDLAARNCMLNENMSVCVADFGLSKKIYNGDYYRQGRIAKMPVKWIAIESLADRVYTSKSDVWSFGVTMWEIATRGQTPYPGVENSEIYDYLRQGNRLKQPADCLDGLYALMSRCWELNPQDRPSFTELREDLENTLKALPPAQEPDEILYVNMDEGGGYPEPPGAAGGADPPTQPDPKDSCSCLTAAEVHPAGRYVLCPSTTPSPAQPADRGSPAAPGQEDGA
- test: AXL (human catalytic domain) Enzyme Activity Assay (IMAP fluorescence polarisation)
- Type: biochemical
- assayConditions: further data set (WW-001 through WW-169, XX-001 through XX-469, YY-001 through YY-016, ZZ-001 through ZZ-003); 150 μM ATP
pIC50: −log10 of the molar value.
reportedMetric: pIC50

Give the reported pIC50 for this compound. Cc1csc(-c2cccc3nc(NC(=O)C4CC4)nn23)c1 5.00 to 6.00

Supply measured pIC50 of CN(C)CCOc1ncc(Nc2nc3cccc(-c4ccc5c(c4)OCCO5)n3n2)cn1 in your reply. 6.00 to 7.00

Tell me its pIC50 given NCc1cc2cc(Nc3nc4cccc(-c5ccc6c(c5)OCCO6)n4n3)ccc2o1 as the entry. ≥ 7.00

Assign pIC50 to the following record: c1cc(-c2ccco2)cc(-c2cccc3nc(Nc4ccc(OCCN5CCCC5)cc4)nn23)c1 6.00 to 7.00

Tell me pIC50 reported for C[C@H](CN)Oc1ccc(Nc2nc3cccc(-c4ccc5c(c4)OCCO5)n3n2)cc1 6.00 to 7.00

For the compound CN(C(=O)OC(C)(C)C)c1ccc(-c2cccc3nc(NC(=O)C4CC4)nn23)cc1 , give its reported pIC50. 5.00 to 6.00

Annotate the compound COc1ccccc1NC(=O)Nc1cccc(-c2cccc3nc(Nc4ccc(OCCN5CCCC5)cc4)nn23)c1 with its measured pIC50. 5.00 to 6.00

For the compound Clc1ccccc1COc1cccc(-c2cccc3nc(Nc4ccc(OCCN5CCCC5)cc4)nn23)c1 , give its measured pIC50 value. 5.00 to 6.00

Supply pIC50 value. Item: C#CCOc1ccc(-c2cccc3nc(Nc4ccc(OCCN5CCCC5)cc4)nn23)cc1 6.00 to 7.00
